Molecular target: ERα (Homo sapiens, UniProt P03372)
Sequence (P03372 1-595): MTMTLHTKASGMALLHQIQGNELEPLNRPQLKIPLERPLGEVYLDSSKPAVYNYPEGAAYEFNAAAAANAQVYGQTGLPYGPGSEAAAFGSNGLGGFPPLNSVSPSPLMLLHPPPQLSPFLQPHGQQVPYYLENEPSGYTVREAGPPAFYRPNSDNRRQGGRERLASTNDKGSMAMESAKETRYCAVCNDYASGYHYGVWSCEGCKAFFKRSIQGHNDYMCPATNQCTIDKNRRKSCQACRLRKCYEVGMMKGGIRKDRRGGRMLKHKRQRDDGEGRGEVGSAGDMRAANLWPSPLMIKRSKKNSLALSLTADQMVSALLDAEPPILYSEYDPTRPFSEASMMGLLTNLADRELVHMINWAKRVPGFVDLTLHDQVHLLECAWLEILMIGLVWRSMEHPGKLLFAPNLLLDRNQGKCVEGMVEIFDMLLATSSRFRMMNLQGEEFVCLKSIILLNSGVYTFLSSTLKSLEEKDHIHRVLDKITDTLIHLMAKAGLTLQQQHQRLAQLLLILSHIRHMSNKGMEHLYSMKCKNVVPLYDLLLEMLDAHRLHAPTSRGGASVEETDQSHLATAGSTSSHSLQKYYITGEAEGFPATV
Assay: Degradation of ERα in T-47D cells (immunoblotting, 4 h)
Format: cell-based
Parameters: host or cells: T-47D
Settings: 10nM compound
Exercise: state measured Degradation rate (%) of ERα in T-47D cells for each of the compounds provided.
Form entry: value (%) — number only.

Short answer for O=C1CCC(N2C(=O)c3cc4c(cc3C2=O)OC2(CC4)CCN(CC3CCC4(CC3)CCN(c3ccc([C@@H]5c6ccc(O)cc6CC[C@@H]5c5ccccc5)cc3)CC4)CC2)C(=O)N1 (some centres unmarked) : Degradation rate (%) of ERα in T-47D cells was 26

Lab book: Degradation rate (%) of ERα in T-47D cells of O=C1CCC(N2Cc3cc4c(cc3C2=O)OC2(CC4)CN(C(=O)CN3CCC4(CCN(c5ccc([C@@H]6c7ccc(O)cc7CC[C@@H]6c6ccccc6)cc5)CC4)C3)C2)C(=O)N1 (some centres unmarked) noted as 78

Measured Degradation rate (%) of ERα in T-47D cells, CC1(CN2CCC3(CC2)COc2c3ccc3c2CN(C2CCC(=O)NC2=O)C3=O)CCN(CC2CCN(c3ccc([C@@H]4c5ccc(O)cc5CC[C@@H]4c4ccccc4)cc3)CC2)CC1 (some centres unmarked) : 36

Reported Degradation rate (%) of ERα in T-47D cells ( O=C1CCC(N2Cc3c(ccc4c3OCC43CCN(CC(=O)N4CC5(C4)CN(c4ccc([C@@H]6c7ccc(O)cc7CC[C@@H]6c6ccccc6)cc4)C5)CC3)C2=O)C(=O)N1 (some centres unmarked) ) = 83

For record O=C1CCC(N2Cc3c(ccc4c3OCC43CCN(C(=O)CN4CCC5(CC4)CCN(c4ccc([C@@H]6c7ccc(O)cc7CC[C@@H]6c6ccccc6)cc4)CC5)CC3)C2=O)C(=O)N1 (some centres unmarked) the listed Degradation rate (%) of ERα in T-47D cells is 89

Reported Degradation rate (%) of ERα in T-47D cells ( O=C1CCC(N2Cc3c(ccc4c3OCC43CCN(C(=O)CN4CCN(C(=O)C5CCN(c6ccc([C@@H]7c8ccc(O)cc8CC[C@@H]7c7ccccc7)cc6)CC5)CC4)CC3)C2=O)C(=O)N1 (some centres unmarked) ) = 84

The compound identified as O=C1CCC(N2Cc3c(ccc4c3OCC43CCN(C4CCN(C5CCN(c6ccc([C@@H]7c8ccc(O)cc8CC[C@@H]7c7ccccc7)cc6)CC5)CC4)CC3)C2=O)C(=O)N1 (some centres unmarked) registered its Degradation rate (%) of ERα in T-47D cells at 62

The compound listed as CCN(CC1CCN(c2ccc([C@@H]3c4ccc(O)cc4CC[C@@H]3c3ccccc3)cc2)CC1)[C@H]1CC[C@@H](C(=O)N2CCC3(CC2)COc2c3ccc3c2CN(C2CCC(=O)NC2=O)C3=O)CC1 (some centres unmarked) shows Degradation rate (%) of ERα in T-47D cells equal to 55

Degradation rate (%) of ERα in T-47D cells reported for this compound C[C@@H]1Cc2c([nH]c3ccccc23)[C@@H](c2c(F)cc(N3CCN(C[C@H]4CC[C@H](C(=O)N5CCC6(CC5)COc5c6ccc6c5CN(C5CCC(=O)NC5=O)C6=O)CC4)CC3)cc2F)N1CC(F)F (some centres unmarked) : 73

The reported value for O=C1CCC(N2Cc3c(ccc4c3OCC43CCN(C4CCC5(CC4)CCN(c4ccc([C@@H]6c7ccc(O)cc7CC[C@@H]6c6ccccc6)cc4)CC5)CC3)C2=O)C(=O)N1 (some centres unmarked) in terms of Degradation rate (%) of ERα in T-47D cells is 71

Record summary for O=C1CCC(N2Cc3c(ccc4c3OCC43CCN(CC(=O)N4CCC(Oc5ccc([C@@H]6c7ccc(O)cc7CC[C@@H]6c6ccccc6)cc5)CC4)CC3)C2=O)C(=O)N1 (some centres unmarked) : reported Degradation rate (%) of ERα in T-47D cells = 46

====

Biological target: ERα (Homo sapiens, UniProt P03372)
Assay: Degradation of ERα in MCF-7 cells (immunoblotting, 4 h)
Format: cell-based
Settings: 10nM compound
// boundary case: Degradation rate (%) of ERα in MCF-7 cells equal to 50% maps to n; strictly smaller maps to y

Answer whether the compound CC1(CN2CCC3(CC2)COc2c3ccc3c2CN(C2CCC(=O)NC2=O)C3=O)CCN(C(=O)C2CCN(c3ccc([C@@H]4c5ccc(O)cc5CC[C@@H]4c4ccccc4)cc3)CC2)CC1 (some centres unmarked) has Degradation rate (%) of ERα in MCF-7 cells strictly less than 50% n

Quick check: does O=C1CCC(N2Cc3c(ccc4c3OCC43CCN(C4CC5(C4)CN(c4ccc([C@@H]6c7ccc(O)cc7CC[C@@H]6c6ccccc6)cc4)C5)CC3)C2=O)C(=O)N1 (some centres unmarked) have Degradation rate (%) of ERα in MCF-7 cells under 50%? y

Strictly below 50% in Degradation rate (%) of ERα in MCF-7 cells? O=C1CCC(N2Cc3cc4c(cc3C2=O)OC2(CC4)CN(C3CCN(C(=O)c4ccc([C@@H]5c6ccc(O)cc6CC[C@@H]5c5ccccc5)cc4)CC3)C2)C(=O)N1 (some centres unmarked) y

Lab note: Degradation rate (%) of ERα in MCF-7 cells threshold 50%. Does this compound come in strictly under it? C[C@@H]1Cc2cc(O)ccc2C(c2c(F)cc(N3CCC4(CC3)CC(N3CCC(N5CCC6(CC5)COc5c6ccc6c5CN(C5CCC(=O)NC5=O)C6=O)[C@@H](F)C3)C4)cc2F)N1CC(F)F (some centres unmarked) n

Determine if C[C@H]1C[C@@H](N2CCC3(CC2)COc2c3ccc3c2CN(C2CCC(=O)NC2=O)C3=O)CCN1C(=O)C1CCN(c2ccc([C@@H]3c4ccc(O)cc4CC[C@@H]3c3ccccc3)cc2)CC1 (some centres unmarked) shows Degradation rate (%) of ERα in MCF-7 cells strictly lower than 50%. n

====

Molecular target: ERα (Homo sapiens, UniProt P03372)
Test: Degradation of ERα in T-47D cells (immunoblotting, 4 h)
Assay type: cell-based
Parameters: host or cells: T-47D
Settings: 1nM compound
reportedProperty: Degradation rate (%) of ERα in T-47D cells
Number in %, nothing else.

For record O=C1CCC(N2C(=O)c3ccc4c(c3C2=O)OCC42CCN(CC3CCN(c4ccc([C@@H]5c6ccc(O)cc6CC[C@@H]5c5ccccc5)cc4)CC3)CC2)C(=O)N1 (stereo partly drawn) [H4] the listed Degradation rate (%) of ERα in T-47D cells is -41

According to the records, this molecule O=C1CCC(N2Cc3cc4c(cc3C2=O)OC2(CC4)CN(CC3CCN(C(=O)C4CCN(c5ccc([C@@H]6c7ccc(O)cc7CC[C@@H]6c6ccccc6)cc5)CC4)CC3)C2)C(=O)N1 (stereo partly drawn) [K39] displays Degradation rate (%) of ERα in T-47D cells of 15

Field Degradation rate (%) of ERα in T-47D cells (entry COC(=O)[C@@H]1C[C@H](N2CCC3(CC2)COc2c3ccc3c2CN(C2CCC(=O)NC2=O)C3=O)CCN1C1CC2(CCN(c3ccc([C@@H]4c5ccc(O)cc5CC[C@@H]4c4ccccc4)cc3)CC2)C1 (stereo partly drawn) [H31] ) reads 55

====

Molecular target: AR protein (Homo sapiens, UniProt P10275, T878A)
Construct: host or cells: LNCaP FGC
Sequence (P10275 whole entry T878A): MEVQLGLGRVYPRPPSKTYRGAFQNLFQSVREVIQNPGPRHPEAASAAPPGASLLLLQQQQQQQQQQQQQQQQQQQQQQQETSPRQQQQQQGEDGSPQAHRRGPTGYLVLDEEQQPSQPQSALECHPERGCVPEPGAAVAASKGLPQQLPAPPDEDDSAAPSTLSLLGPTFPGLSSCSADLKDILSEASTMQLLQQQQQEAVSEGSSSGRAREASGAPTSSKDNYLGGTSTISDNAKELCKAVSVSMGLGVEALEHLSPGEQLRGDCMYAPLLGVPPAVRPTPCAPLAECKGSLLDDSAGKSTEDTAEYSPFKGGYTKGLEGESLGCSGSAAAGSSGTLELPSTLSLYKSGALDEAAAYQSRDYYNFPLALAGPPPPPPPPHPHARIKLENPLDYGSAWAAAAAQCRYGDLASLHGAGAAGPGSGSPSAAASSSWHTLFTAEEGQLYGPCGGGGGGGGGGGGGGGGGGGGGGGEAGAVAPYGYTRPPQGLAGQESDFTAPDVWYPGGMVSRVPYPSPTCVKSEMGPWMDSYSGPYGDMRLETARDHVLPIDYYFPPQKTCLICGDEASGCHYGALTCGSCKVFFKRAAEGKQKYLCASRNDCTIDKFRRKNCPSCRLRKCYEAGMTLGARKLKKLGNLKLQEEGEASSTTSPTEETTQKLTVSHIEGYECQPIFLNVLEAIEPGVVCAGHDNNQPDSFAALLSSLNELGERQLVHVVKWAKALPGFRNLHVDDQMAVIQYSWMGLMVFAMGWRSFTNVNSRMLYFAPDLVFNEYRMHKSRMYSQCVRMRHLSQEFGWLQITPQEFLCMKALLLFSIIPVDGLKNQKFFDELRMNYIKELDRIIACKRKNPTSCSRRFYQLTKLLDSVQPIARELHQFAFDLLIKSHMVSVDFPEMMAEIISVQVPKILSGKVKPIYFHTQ
Assay: Degradation of AR protein in LNCAP cells (Western blot, 8 h)
Format: cell-based
Settings: LNCaP FGC cells, 10 nM
reportedProperty: Degradation rates of the AR protein in LNCAP cells, 10 nM (%)
Please reply with the bare figure in % and do not write the unit itself.

get_value(item= COc1cc(O[C@H]2CC[C@H](NC(=O)c3ccc(N4CCC(F)(CN5CCC6(CC5)COc5c6ccc6c5C(=O)N(C5CCC(=O)NC5=O)C6)CC4)nn3)CC2)ccc1C#N (relative stereo) [2-316] , readout=Degradation rates of the AR protein in LNCAP cells, 10 nM (%)) returns 49

Quick note, Degradation rates of the AR protein in LNCAP cells, 10 nM (%) for COc1cc(O[C@H]2C(C)(C)[C@H](NC(=O)c3ccc(N4CCC(C)(CN5CCC6(CC5)COc5c6ccc6c5C(=O)N(C5CCC(=O)NC5=O)C6)CC4)cc3)C2(C)C)ccc1C#N (relative stereo) [2-292] landed at 43

// recorded Degradation rates of the AR protein in LNCAP cells, 10 nM (%) for C[C@H]1CC2(CCN(c3ccc(C(=O)N4CCC(CN5CCC6(CC5)COc5cc7c(cc56)CN(C5CCC(=O)NC5=O)C7=O)CC4)cc3)CC2)CN1c1ccc(C#N)c(Cl)c1 (stereo partly shown) [2-384] : 48

// Degradation rates of the AR protein in LNCAP cells, 10 nM (%) lookup, molecule = COc1cc(O[C@H]2CC[C@H](NC(=O)c3ccc(N4CCC(C)(CN5CCC6(CC5)COc5c6ccc6c5C(=O)N(C5CCC(=O)NC5=O)C6)CC4)nn3)CC2)ccc1C#N (relative stereo) [2-261] , result: 53

Data provenance: patent EP4656642A1
